# Test system: Staphylococcus aureus
# procedure_details: Antimicrobial activity against Staphylococcus aureus RN4220 harboring pAT392 containing rdmC-like gene by broth microdilution method
# Format: functional
measured_metric: MIC (µg/mL)
Report the figure in µg/mL without appending any unit label.

Request the reported MIC associated with CCC[C@@H]1C[C@@H](C(=O)N[C@@H]([C@H]2O[C@H](SC)[C@H](O)[C@@H](O)[C@H]2O)[C@H](C)Cl)N(C)C1 [CLINDAMYCIN]
0.06

Proceed to CC[C@H]1OC(=O)[C@H](C)[C@@H](O[C@H]2C[C@@](C)(OC)[C@@H](O)[C@H](C)O2)[C@H](C)[C@@H](O[C@@H]2O[C@H](C)C[C@H](N(C)C)[C@H]2O)[C@](C)(O)C[C@@H](C)C(=O)[C@H](C)[C@@H](O)[C@]1(C)O [ERYTHROMYCIN]
0.25

Proceed to CO[C@@H]1[C@@H](O[C@@H]2O[C@H](C)[C@@H](O[C@H]3C[C@@](C)(O)[C@@H](OC(=O)CC(C)C)[C@H](C)O3)[C@H](N(C)C)[C@H]2O)[C@@H](CC=O)C[C@@H](C)[C@@H](O)/C=C/C=C/C[C@@H](C)OC(=O)C[C@H]1OC(C)=O [JOSAMYCIN]
1

Proceed to CC[C@H]1OC(=O)C[C@@H](O)[C@H](C)[C@@H](O[C@@H]2O[C@H](C)[C@@H](O[C@H]3C[C@@](C)(O)[C@@H](O)[C@H](C)O3)[C@H](N(C)C)[C@H]2O)[C@@H](CC=O)C[C@@H](C)C(=O)/C=C/C(C)=C/[C@@H]1CO[C@@H]1O[C@H](C)[C@@H](O)[C@@H](OC)[C@H]1OC [TYLOSIN]
1
